test system: EPHA7; conditions: concentration: 1 μM, replicates: in singlicate; n = 1;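 further: KINOMEscan kinase panel screen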
Label 1 (yes) when %Inh is at or above 2%; anything below gets 0 (no).

| Smiles text | Discrete label |
| --- | --- |
| c1ccc(-c2ccc3c(-c4ccnc(Nc5ccc6c(c5)OCCO6)n4)cnn3n2)cc1 | 1 (yes) |
| CSc1ccc(NC2=C(c3ccccc3Cl)C(=O)NC2=O)cc1 | 1 (yes) |
| CCn1c(-c2ccncc2)nc2cnccc21 | 0 (no) |
| CCc1nc(-c2cccc(N(C)S(=O)(=O)c3ccccc3)c2)c(-c2ccnc(Nc3ccc(N4CCN(C(C)=O)CC4)nc3)n2)s1 | 1 (yes) |
| O=c1cc(N2CCOCC2)nc2n(Cc3cccc(Cl)c3)ccn12 | 1 (yes) |
| O=C(Nc1n[nH]c2nc(-c3ccco3)c(Br)cc12)c1ccc(CN2CCCC2)cc1.O=C(O)[C@H](O)[C@@H](O)C(=O)O | 0 (no) |
| C[C@H]1CC[C@@H](C(=O)Nc2ccccc2)CN1c1cc(-c2ccc3c(N)n[nH]c3c2)nc(N)n1 | 1 (yes) |

Recorded values, source paper PMC5540273.
